Molecular target: Trace amine-associated receptor 1 (Homo sapiens)
Sequence (Q96RJ0 whole entry): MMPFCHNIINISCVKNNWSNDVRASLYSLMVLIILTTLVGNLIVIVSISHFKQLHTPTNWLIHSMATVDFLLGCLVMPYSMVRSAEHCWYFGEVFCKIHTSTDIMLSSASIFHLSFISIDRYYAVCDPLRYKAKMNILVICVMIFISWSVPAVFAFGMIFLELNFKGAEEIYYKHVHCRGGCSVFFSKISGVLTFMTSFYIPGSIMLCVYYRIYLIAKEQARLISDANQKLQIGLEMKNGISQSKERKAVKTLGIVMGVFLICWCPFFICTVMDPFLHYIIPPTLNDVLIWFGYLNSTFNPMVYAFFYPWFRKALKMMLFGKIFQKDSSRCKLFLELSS
Test: Agonist activity at human trace amine associated receptor 1 expressed in RD-HGA16 CHO-K1 cells coexpressed with Galpha16 protein assessed as internal calcium mobilization by calcium 3 assay
Assay type: functional, cell-based
measure name: EC50 (µM)
Report the value in µM with no unit label.

Which EC50 reading was recorded for the compound NCCc1ccccc1O ? 0.614

Tell me the measured EC50 of NCCc1ccc(F)cc1 , please. 0.74

Value lookup for EC50; key = CN(C)CCc1cccc(F)c1 4.32

// query EC50 value for entry NCCc1ccc2c(c1)OCO2 5.03

I'd like to know its EC50. The compound in question is COc1ccccc1CCN 0.144

Given the compound COc1cc(CCN)c(OC)cc1Cl , what is its reported EC50? 3.75

Recorded EC50 of NCCc1ccc(Cl)cc1 , please. 2.86

Fill in: EC50 of CNCCc1ccccc1Br is ___ 0.205

// returns reported EC50 for input NCCc1cccc(C(F)(F)F)c1 3.95

Query: EC50; subject: CNCCc1ccc(Br)cc1 6.54

Can you share its EC50? I mean this compound: NCCc1ccccc1I 0.103

Could you tell me which EC50 is on file for CN(C)CCc1ccccc1 ? 100

Need EC50, item CC(C)C(CN)c1ccccc1 (stereo not given) 9.95

Consider the compound CC(C)(C)c1ccc(CCN)cc1 and give its measured EC50. 5110

Which value of EC50 has been reported for NCCc1cccc(Cl)c1Cl in the records? 1.16

Which EC50 is reported for this compound? NCCc1cccc(O)c1 1.74

Query (compound): COc1cccc(CCN)c1 ; field requested: EC50 1.44

May I ask what EC50 has been recorded for CN(C)CCc1cccc(Cl)c1 ? 5.98

Name the reported EC50 value associated with the compound CNCCc1ccccc1F 0.117

I'd like to know its EC50. The compound in question is CN(C)CCc1cccc(Br)c1 8.3

# EC50 lookup, item NCCc1ccc(Cl)c(Cl)c1 3.43

Report EC50 for N[C@@H]1C[C@H]1c1ccccc1 (relative stereo) please. 1.51

Can you share its EC50? I mean this compound: CNCCc1ccccc1Cl 0.16

Entry NCCc1cccc(Br)c1 has what EC50? 0.398

May I ask what EC50 has been recorded for CN(C)CCc1ccccc1Cl ? 0.687

Looking for the measured EC50 of Cc1cccc(CCN)c1 , can you help? 0.638

Find the recorded EC50 belonging to Cc1ccc(C)c(CCN)c1 and report it. 0.377

What value of EC50 has been recorded for this entry: C[C@@H](CN)c1ccccc1 0.361

Requested read-out: EC50. Entry: CN(C)CCc1ccc(F)cc1 19.1

Item under review: NCCc1ccccc1Cl . Reported EC50? 0.077

====

Task for the reader: assign each of the following molecules its reported Emax.
Target: Trace amine-associated receptor 1 (Homo sapiens) (UniProt Q96RJ0)
Assay: Agonist activity at human trace amine associated receptor 1 expressed in RD-HGA16 CHO-K1 cells coexpressed with Galpha16 protein assessed as internal calcium mobilization by calcium 3 assay relative to 2-phenylethanamine
Assay type: functional, cell-based
The answer is to be given in %; state only the numeric part.

Lab note: need Emax with Trace amine-associated receptor 1 (Homo sapiens) (UniProt Q96RJ0) for entry CNCCc1ccccc1 , please look it up. 69

GET /values?readout=Emax&system=Trace amine-associated receptor 1 (Homo sapiens) (UniProt Q96RJ0)&item= Cc1ccc(C)c(CCN)c1 84

// fetch Trace amine-associated receptor 1 (Homo sapiens) (UniProt Q96RJ0) Emax for CC(C)(N)Cc1ccccc1 68

Lookup: Emax / Trace amine-associated receptor 1 (Homo sapiens) (UniProt Q96RJ0) / COc1ccccc1CCN 95

Record lookup: for Trace amine-associated receptor 1 (Homo sapiens) (UniProt Q96RJ0), what Emax belongs to CN(C)CCc1ccc(F)cc1 ? 71

API: value(readout=Emax, system=Trace amine-associated receptor 1 (Homo sapiens) (UniProt Q96RJ0)) for record NCCc1ccc2c(c1)OCO2 63

Form entry - test system: Trace amine-associated receptor 1 (Homo sapiens) (UniProt Q96RJ0); read-out: Emax; molecule: CCc1cc(OC)c(CCN)cc1OC 32

Entry CC(C)(CN)c1ccccc1 , system Trace amine-associated receptor 1 (Homo sapiens) (UniProt Q96RJ0): what Emax was measured? 70

Query for Trace amine-associated receptor 1 (Homo sapiens) (UniProt Q96RJ0): what Emax does the record show for NCCc1ccccc1F ? 91

# returns recorded Emax (system: Trace amine-associated receptor 1 (Homo sapiens) (UniProt Q96RJ0)) for CN(C)CCc1ccccc1Br 78

Query the reported Emax for Trace amine-associated receptor 1 (Homo sapiens) (UniProt Q96RJ0); item: CN(C)CCc1ccccc1F 75

// fetch Trace amine-associated receptor 1 (Homo sapiens) (UniProt Q96RJ0) Emax for COc1ccc(OC)c(CCN)c1 69

Query Emax on Trace amine-associated receptor 1 (Homo sapiens) (UniProt Q96RJ0) for NCCc1ccc(Cl)cc1 104

// fetch Trace amine-associated receptor 1 (Homo sapiens) (UniProt Q96RJ0) Emax for NCCc1cccc(F)c1 93

Find Emax (Trace amine-associated receptor 1 (Homo sapiens) (UniProt Q96RJ0)) for the entry CN(C)CCc1ccc(Cl)cc1 43

Return Emax measured with Trace amine-associated receptor 1 (Homo sapiens) (UniProt Q96RJ0) given this molecule: NCCc1c(F)cc(O)cc1F 103

Please tell me: Emax of CN(C)CCc1ccccc1Cl , system Trace amine-associated receptor 1 (Homo sapiens) (UniProt Q96RJ0)? 79

I'm curious: which Emax was measured for CN(C)CCc1cccc(Br)c1 tested on Trace amine-associated receptor 1 (Homo sapiens) (UniProt Q96RJ0)? 88

Form entry - test system: Trace amine-associated receptor 1 (Homo sapiens) (UniProt Q96RJ0); read-out: Emax; molecule: NCCc1ccc(O)cc1 91

What value of Emax on Trace amine-associated receptor 1 (Homo sapiens) (UniProt Q96RJ0) does COc1ccc(CCN)cc1 have? 106

Query the reported Emax for Trace amine-associated receptor 1 (Homo sapiens) (UniProt Q96RJ0); item: COc1cc(F)c(CCN)c(F)c1 90

Report Emax for C[C@H](CN)c1ccccc1 tested on Trace amine-associated receptor 1 (Homo sapiens) (UniProt Q96RJ0). 104

Record lookup: for Trace amine-associated receptor 1 (Homo sapiens) (UniProt Q96RJ0), what Emax belongs to CNCCc1cccc(F)c1 ? 88

Write down the reported Emax of NCCc1c(Cl)cccc1Cl , test system: Trace amine-associated receptor 1 (Homo sapiens) (UniProt Q96RJ0). 94

Hello, I am looking for reported Emax with Trace amine-associated receptor 1 (Homo sapiens) (UniProt Q96RJ0) for NCC(c1ccccc1)c1ccccc1 . Could you help? 70

For Trace amine-associated receptor 1 (Homo sapiens) (UniProt Q96RJ0), provide Emax of NCCc1ccccc1O please. 90

Test system Trace amine-associated receptor 1 (Homo sapiens) (UniProt Q96RJ0); read-out Emax; what value for NCCc1ccccc1Cl ? 72

Please state recorded Emax (tested on Trace amine-associated receptor 1 (Homo sapiens) (UniProt Q96RJ0)) of Cc1ccc(CCN)cc1 96

Please tell me: Emax of NCC1(c2ccccc2)CC1 , system Trace amine-associated receptor 1 (Homo sapiens) (UniProt Q96RJ0)? 79

For the record NCCc1cccc(O)c1 , what value of Emax is listed for Trace amine-associated receptor 1 (Homo sapiens) (UniProt Q96RJ0)? 78

Recorded Emax for COc1cccc(CCN)c1 with Trace amine-associated receptor 1 (Homo sapiens) (UniProt Q96RJ0), please? 73

// fetch Trace amine-associated receptor 1 (Homo sapiens) (UniProt Q96RJ0) Emax for COc1cc(CCN)c(OC)cc1C 36

Please provide the recorded Emax for CNCCc1cccc(Cl)c1 , tested on Trace amine-associated receptor 1 (Homo sapiens) (UniProt Q96RJ0). 77
